Entries and their pest or weed control at 500 g/ha
- Test system: Phaedon cochleariae
- Test description: Phaedon cochleariae spray test
- Assay type: in vivo
- Condition details: foliar, 168 h, Chinese cabbage leaf discs, larvae, after 7 days, read-out: efficacy

>  <Structure>
Cc1ccc(F)cc1S(=O)(=O)NC(=O)c1cn(C)c(-c2c(F)cccc2F)n1

>  <U>
%

>  <pest or weed control at 500 g/ha>
100

$$$$
>  <Structure>
Cn1cc(C(=O)NS(=O)(=O)c2ccc(Cl)cc2Cl)nc1-c1c(F)cccc1F

>  <U>
%

>  <pest or weed control at 500 g/ha>
83

$$$$
>  <Structure>
Cc1cccc(C)c1S(=O)(=O)NC(=O)c1cn(C)c(-c2cccc(Cl)c2Cl)n1

>  <U>
%

>  <pest or weed control at 500 g/ha>
100

$$$$
>  <Structure>
COc1ccc(Cl)c(S(=O)(=O)NC(=O)c2cn(C)c(-c3c(Cl)cccc3Cl)n2)c1

>  <U>
%

>  <pest or weed control at 500 g/ha>
100

$$$$
>  <Structure>
Cc1cc(C(=O)NS(=O)(=O)c2cc(Cl)ccc2Br)nn1-c1c(F)cccc1F

>  <U>
%

>  <pest or weed control at 500 g/ha>
100

$$$$
>  <Structure>
Cn1cc(C(=O)NS(=O)(=O)c2ccccc2I)nc1-c1ccccc1Cl

>  <U>
%

>  <pest or weed control at 500 g/ha>
100

$$$$
